Biological target: T1, human neuropeptide Y2 receptor (human, UniProt P49146 1-381)
T1 sequence (looked up): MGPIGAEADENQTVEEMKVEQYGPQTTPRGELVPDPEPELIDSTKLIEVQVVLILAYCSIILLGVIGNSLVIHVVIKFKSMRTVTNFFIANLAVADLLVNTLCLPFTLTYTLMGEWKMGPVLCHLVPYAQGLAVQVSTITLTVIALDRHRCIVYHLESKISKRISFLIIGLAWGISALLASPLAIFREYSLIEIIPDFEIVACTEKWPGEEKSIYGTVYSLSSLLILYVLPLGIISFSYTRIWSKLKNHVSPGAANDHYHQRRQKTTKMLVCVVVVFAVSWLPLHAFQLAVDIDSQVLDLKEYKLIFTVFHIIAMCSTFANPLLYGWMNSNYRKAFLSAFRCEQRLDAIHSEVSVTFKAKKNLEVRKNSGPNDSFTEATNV
Assay: cell-based or functional assay
Starred links: 1 amine or outer side, 2 acyl side, 3 side chain; linkers in the order of their positions; H or OH if unused. Non-standard residues stand in square brackets, D forms with d. Groups on a side chain read outwards from the residue. No end group written: not given here. *: point of attachment. C20 diacid = O=C(O)CCCCCCCCCCCCCCCCCCC(=O)*; C18 diacid = O=C(O)CCCCCCCCCCCCCCCCC(=O)*; γGlu = O=C(O)[C@H](CCC(=O)[*:2])N[*:1]; εLys = N[C@@H](CCCCN[*:1])C(=O)[*:2]; AEEA = NCCOCCOCC(=O)O; Aib = CC(C)(N)C(=O)O
value_kind: EC50 hNPY2R 0.5% hP (CreLuc) (nM)
Answer with a number only, understood to be in nM.

Example entries and their recorded answers appear below.
binder	value_kind	endpoint_value
Y[Aib]EGTFTSDYSI[Aib]LEKQAQ[Aib]AFVQWLIK([εLys-γGlu-γGlu-γGlu-γGlu-γGlu-C18 diacid])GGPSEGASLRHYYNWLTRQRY-NH2 (also: TFA salt) [Compound 267]	EC50 hNPY2R 0.5% hP (CreLuc)	9.25
Y[Aib]EGTFTSDYSI[Aib]LEKQAQ[Aib]AFVEWLIK([Glu-Glu-Glu-Glu-Glu-Glu-C18 diacid])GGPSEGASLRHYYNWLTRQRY-NH2 (also: TFA salt) [Compound 302]	EC50 hNPY2R 0.5% hP (CreLuc)	31.9
Y[Aib]EGTFTSDYSI[Aib]LEKQAQ[Aib]AFIEWLIK([γGlu-γGlu-γGlu-γGlu-C20 diacid])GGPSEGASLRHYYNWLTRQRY-NH2 (also: TFA salt) [Compound 283]	EC50 hNPY2R 0.5% hP (CreLuc)	14.7
Y[Aib]EGTFTSDYSI[Aib]LEKQAQ[Aib]EFVEWLIK([AEEA-AEEA-γGlu-γGlu-γGlu-C20 diacid])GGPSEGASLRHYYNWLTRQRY-NH2 (also: TFA salt) [Compound 273]	EC50 hNPY2R 0.5% hP (CreLuc)	19.3
Y[Aib]EGTFTSDYSI[Aib]LEKQAQ[Aib]AFVEWLIK([γGlu-γGlu-γGlu-γGlu-γGlu-γGlu-C20 diacid])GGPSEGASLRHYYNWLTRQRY-NH2 (also: TFA salt) [Compound 305]	EC50 hNPY2R 0.5% hP (CreLuc)	18.2
Y[Aib]EGTFTSDYSI[Aib]LEKQAQ[Aib]AFVEWLIK([AEEA-AEEA-γGlu-γGlu-γGlu-γGlu-C18 diacid])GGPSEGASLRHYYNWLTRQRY-NH2 (also: TFA salt) [Compound 297]	EC50 hNPY2R 0.5% hP (CreLuc)	14.4

Reported EC50 hNPY2R 0.5% hP (CreLuc) ( Y[Aib]EGTFTSDYSI[Aib]LEKQAQ[Aib]AFVEWLIKGGPSEGASLRHYYNWLTRQRY-NH2 (not fully specified (residue 28); also: TFA salt) [Compound 286] ) = 15.7

Reported EC50 hNPY2R 0.5% hP (CreLuc) ( Y[Aib]EGTFTSDYSI[Aib]LEKQAQ[Aib]EFVEWLIK([AEEA-AEEA-γGlu-γGlu-γGlu-C18 diacid])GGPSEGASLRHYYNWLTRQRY-NH2 (also: TFA salt) [Compound 284] ) = 18.8
